# systemTested: rat Monoamine Oxidase, MAO-B, Peripheral (MAOBP), Maob (gene 25750) (UniProt P19643)
# Sequence (P19643 whole entry, looked up): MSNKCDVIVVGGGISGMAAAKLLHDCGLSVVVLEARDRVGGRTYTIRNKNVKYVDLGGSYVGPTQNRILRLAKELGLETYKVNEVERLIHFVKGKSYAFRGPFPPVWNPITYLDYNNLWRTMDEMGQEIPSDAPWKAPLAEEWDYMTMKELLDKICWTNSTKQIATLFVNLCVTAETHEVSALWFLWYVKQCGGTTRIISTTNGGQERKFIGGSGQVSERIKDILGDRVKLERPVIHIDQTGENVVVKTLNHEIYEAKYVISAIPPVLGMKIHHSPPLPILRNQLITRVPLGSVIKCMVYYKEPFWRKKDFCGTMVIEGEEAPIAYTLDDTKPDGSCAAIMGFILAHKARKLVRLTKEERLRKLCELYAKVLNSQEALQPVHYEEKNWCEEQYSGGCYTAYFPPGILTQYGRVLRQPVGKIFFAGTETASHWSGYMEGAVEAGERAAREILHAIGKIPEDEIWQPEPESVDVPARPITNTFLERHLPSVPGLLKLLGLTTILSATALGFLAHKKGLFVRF
# assayInfo: NVS_ENZ_rMAOBP: NovaScreen (NVS) Enzymatic Assay for rat Monoamine Oxidase, MAO-B, Peripheral (MAOBP) (AID 2283242)
Inconclusive results are not listed. Calls of active or inactive are those of the source. Rule for the calls: active = hit-call score of the fitted dose curve at least 0.9, where 1 is the maximum; inconclusive = response in the unintended direction; inactive = score below 0.9.
readoutType: AC50

# example entries with known answers
**Q:** Given the compound CN(C)c1ccc(C(=C2C=CC(=[N+](C)C)C=C2)c2ccc(N(C)C)cc2)cc1 , what is its reported AC50?
**A:** 25 µM (active)

**Q:** Moving on to CCOC(=O)C(C)Oc1ccc(Oc2nc3ccc(Cl)cc3o2)cc1 (stereo not given)
**A:** 29.9 µM (active)

**Q:** Moving on to CNS(=O)(=O)c1cc(C(=O)N2CCC(CCN3C4CCC3CC(n3c(C)nc5ccccc53)C4)(c3cccc(F)c3)CC2)c(Cl)cc1F (stereo not given)
**A:** inactive

**Q:** Moving on to COc1cccc(-c2ccc(/C=C\CN3CCCCCC3)cc2Cl)c1
**A:** 11.6 µM (active)

**Q:** Moving on to C=CCCCCCCCCCCCC
**A:** inactive

**Q:** Moving on to S=C(S)NCCNC(=S)S.[Mn+2].[S-]C([S-])=NCCN=C([S-])[S-].[Zn+2]
**A:** inactive

**Q:** Moving on to CC(C)(O)c1ccc(CNC(=O)c2cccnc2Oc2ccc3nonc3c2)cc1
**A:** inactive

**Q:** Moving on to O=c1c(-c2ccc(O)cc2)coc2cc(O)ccc12
**A:** inactive

---
**Q:** Given the compound CCCCCCC(C=O)=Cc1ccccc1 , what is its reported AC50?
**A:** inactive

**Q:** Moving on to Fc1ccccc1[C@@H](F)COC1CCC(Nc2ncnc3[nH]ncc23)CC1 (stereo not given in full)
**A:** 7.67 µM (active)

These entries and their values trace back to PubChem BioAssay (EPA / NIEHS).
